Tested on: ACHN renal
assay_procedure: NCI tumour cell line growth inhibition, 48 h
Reported TGI values follow for various molecules
measurement_label: TGI

molecule	value_reported
Clc1cccc(Cl)c1C1ON=C(c2ccccc2)N1C12CC3CC(CC(C3)C1)C2 (stereo unspecified)	> 100 µM
O=C(O)c1oc2ccc([N+](=O)[O-])c3c2c1CCC3	> 100 µM
COc1cc2c(cc1OCc1ccccc1)NC(=O)[C@@H]1C[C@@H](O)CN1C2=O	> 100 µM
COC(=O)C1CC(C=O)=C(SC)N1 (stereo unspecified)	> 50 µM
Nc1ccccc1C#Cc1ccccc1C#CCCCCO	59 µM
OCC(O)C(OC1OC(CO)C(O)C(O)C1O)c1nn(-c2ccc(F)cc2)c2nc3cc(Cl)c(Cl)cc3cc12 (stereo unspecified)	> 100 µM

====

Listing of recorded TGI by entry.
Tested on: CAKI-1 renal
assay_procedure: NCI tumour cell line growth inhibition, 48 h
measurement_label: TGI

molecule	tgt	value_reported
CC(C)(C)c1ccc(C(O)(c2ccc(C(C)(C)C)cc2)c2ccc(C(C)(C)C)cc2)cc1	CAKI-1 renal	> 100 µM
COc1cc(Nc2ncc(-c3ccccc3)o2)cc(OC)c1OC	CAKI-1 renal	> 25 µM
CCSc1nn(-c2c3ccccc3nc3ccccc23)c(=S)s1	CAKI-1 renal	> 100 µM
N#CCc1nc2c(s1)C(=O)c1ccccc1C2=O	CAKI-1 renal	38.6 µM
NC(=S)NS(=O)(=O)c1ccc(Cl)cc1Cl	CAKI-1 renal	> 100 µM
O=C(n1c(=O)n(-c2ccc([N+](=O)[O-])cc2)c(=O)n1C(=O)C(Cl)(Cl)Cl)C(Cl)(Cl)Cl	CAKI-1 renal	> 100 µM
COc1ccc(/C(Cl)=C(\C=O)c2ccc(Cl)cc2)cc1	CAKI-1 renal	> 100 µM
C1CN(C23OC4(N5CCOCC5)C5C6CC(C7C6C4C72)C53)CCO1 (centres undefined)	CAKI-1 renal	> 100 µM
COc1ccc(C2=C(N)c3ccccc3C2=O)cc1	CAKI-1 renal	> 100 µM
C[N+](C)(C)c1nc(N)nc2c1ncn2C1OC(CO)C(O)C1O (centres undefined)	CAKI-1 renal	> 100 µM
Fc1ccc(-c2c(-c3ccncc3)n(CCN3CCOCC3)c3cccnc23)cc1	CAKI-1 renal	> 25 µM
c1ccc(CN(Cc2ccccn2)Cn2cccn2)nc1	CAKI-1 renal	> 100 µM
C=C1C(=O)O[C@H]2[C@@H](O)[C@H](C)CCC/C(C)=C/CC[C@@]3(C)O[C@@H]3C[C@@H]12	CAKI-1 renal	6.9 µM
CN(c1ccccc1)c1c(-c2ccccc2)c(=O)oc2c1ccc1occc12	CAKI-1 renal	> 100 µM
O=C(O)c1c(Cl)c(Cl)c(Cl)c(Cl)c1-c1c2cc(I)c(=O)c(I)c-2oc2c(I)c(O)c(I)cc12	CAKI-1 renal	86.7 µM
CC12CC(=O)NN=C1c1ccccc1C2 (centres undefined)	CAKI-1 renal	> 100 µM
C=C(C)[C@@H]1CC[C@]2(C#N)CC[C@]3(C)[C@H](CC[C@@H]4[C@@]5(C)CCCNC(C)(C)[C@@H]5CC[C@]43C)[C@@H]12	CAKI-1 renal	11.5 µM
CN1C(C(=O)Nc2ccccn2)=C(O)c2ccccc2S1(=O)=O	CAKI-1 renal	> 100 µM
OCC(CO)CC1COc2ccccc2O1 (centres undefined)	CAKI-1 renal	> 10 µM
CCCCCCCCSC(SCCCCCCCC)=C1C(=O)N(c2ccccc2)N=C1C	CAKI-1 renal	90.7 µM
COc1cc(SC)ccc1C(=O)N1CCCC(C)C1 (centres undefined)	CAKI-1 renal	> 100 µM
O=C1CCC(c2ccccc2)(c2ccccc2)CC1	CAKI-1 renal	> 100 µM
COCCn1cc(-c2csc(-c3c[nH]c4ccc(F)cc34)n2)c2cccnc21	CAKI-1 renal	> 100 µM
S=C1OC2C3C4CC5C3C(O1)C1C5C4C21 (centres undefined)	CAKI-1 renal	> 100 µM
COc1cc(C(=O)c2c(-c3ccccc3)oc3ccccc23)cc(OC)c1O	CAKI-1 renal	16 µM
CCOc1cc(C=Nc2ccc(Oc3ccc(Cl)cc3)c(Cl)c2)ccc1O	CAKI-1 renal	59.4 µM
O=C(Nc1ccc(-c2nc3ccc(NC(=O)c4ccc(Cl)cc4)cc3[nH]2)cc1)c1ccc(Cl)cc1	CAKI-1 renal	23.7 µM
CC(C)(CN1CCCCC1)C(=O)CC(SCCS(=O)(=O)O)c1ccc(Cl)c(Cl)c1 (centres undefined)	CAKI-1 renal	12.9 µM
Cc1cc(C(C)(C)C)c(OCCCN2CCOCC2)c(C(C)(C)C)c1	CAKI-1 renal	34.5 µM
COc1cc(C=NCC(=O)CSC(c2ccccc2)c2ccccc2)cc(OC)c1OC	CAKI-1 renal	> 100 µM
O=C(O)c1cc2c(cc1CC(Cc1ccccc1)C(=O)O)CCC2 (centres undefined)	CAKI-1 renal	> 100 µM
Cc1cc(C(=O)NCCN(C)C)c2nc3ccccc3nc2c1	CAKI-1 renal	> 46.5 µM
CCn1c(-c2cc3ccccc3cc2OC(=O)c2ccccc2)n[nH]c1=S	CAKI-1 renal	> 50 µM
COc1ccc(C2CC(C)=Nc3c([nH]c(=S)[nH]c3=O)N2)cc1 (centres undefined)	CAKI-1 renal	65 µM
O=C(O)c1oc2ccc([N+](=O)[O-])c3c2c1CCC3	CAKI-1 renal	> 100 µM
CC(=O)Nc1oc(C)nc1C#N	CAKI-1 renal	> 100 µM
C/C(=N\N=C(N)N)c1sc(-c2nc(C)c(/C(C)=N/N=C(N)N)s2)nc1C	CAKI-1 renal	> 100 µM
COc1ccc2c(c1)[n+]([O-])c(-c1ccc(Cl)c(Cl)c1)c(N)[n+]2[O-]	CAKI-1 renal	> 100 µM
C1CCN2CC34CC(CC5CCCN(C6CCCC3N6)C54)C2C1 (centres undefined)	CAKI-1 renal	> 100 µM
O=C(/C=C/c1cccs1)Nc1ncc(Cc2ccccc2F)s1	CAKI-1 renal	> 100 µM
COc1cc(/C=C/C=C2\CC(C)C/C(=C\C=C\c3ccc(O)c(OC)c3)C2=O)ccc1O (centres undefined)	CAKI-1 renal	33.2 µM
Cn1cnc([N+](=O)[O-])c1Sc1nncc2[nH]cnc12	CAKI-1 renal	> 100 µM
CC(C)(C)OC(=O)N[C@@H](Cc1ccccc1)C(=O)N1CC[C@@H](C(=O)N2[C@H]3CC4CC[C@@]3(CS2(=O)=O)C4(C)C)N1	CAKI-1 renal	> 100 µM
NC(Cc1ccccc1)C(=O)O (centres undefined)	CAKI-1 renal	> 100 µM

# credit: PubChem BioAssay (NCI)
